Where do these numbers come from? They come from patent US20260265238A1.

- TARGET_SYSTEM: SMARCA2-HiBiT HeLa cells (protein which is expressed from the SMARCA2 gene) (Homo sapiens)
- Construct: protein which is expressed from the SMARCA2 and SMARCA4 genes; host or cells: HeLa (SMARCA2-HiBiT engineered line)
- Sequence (P51531 whole entry): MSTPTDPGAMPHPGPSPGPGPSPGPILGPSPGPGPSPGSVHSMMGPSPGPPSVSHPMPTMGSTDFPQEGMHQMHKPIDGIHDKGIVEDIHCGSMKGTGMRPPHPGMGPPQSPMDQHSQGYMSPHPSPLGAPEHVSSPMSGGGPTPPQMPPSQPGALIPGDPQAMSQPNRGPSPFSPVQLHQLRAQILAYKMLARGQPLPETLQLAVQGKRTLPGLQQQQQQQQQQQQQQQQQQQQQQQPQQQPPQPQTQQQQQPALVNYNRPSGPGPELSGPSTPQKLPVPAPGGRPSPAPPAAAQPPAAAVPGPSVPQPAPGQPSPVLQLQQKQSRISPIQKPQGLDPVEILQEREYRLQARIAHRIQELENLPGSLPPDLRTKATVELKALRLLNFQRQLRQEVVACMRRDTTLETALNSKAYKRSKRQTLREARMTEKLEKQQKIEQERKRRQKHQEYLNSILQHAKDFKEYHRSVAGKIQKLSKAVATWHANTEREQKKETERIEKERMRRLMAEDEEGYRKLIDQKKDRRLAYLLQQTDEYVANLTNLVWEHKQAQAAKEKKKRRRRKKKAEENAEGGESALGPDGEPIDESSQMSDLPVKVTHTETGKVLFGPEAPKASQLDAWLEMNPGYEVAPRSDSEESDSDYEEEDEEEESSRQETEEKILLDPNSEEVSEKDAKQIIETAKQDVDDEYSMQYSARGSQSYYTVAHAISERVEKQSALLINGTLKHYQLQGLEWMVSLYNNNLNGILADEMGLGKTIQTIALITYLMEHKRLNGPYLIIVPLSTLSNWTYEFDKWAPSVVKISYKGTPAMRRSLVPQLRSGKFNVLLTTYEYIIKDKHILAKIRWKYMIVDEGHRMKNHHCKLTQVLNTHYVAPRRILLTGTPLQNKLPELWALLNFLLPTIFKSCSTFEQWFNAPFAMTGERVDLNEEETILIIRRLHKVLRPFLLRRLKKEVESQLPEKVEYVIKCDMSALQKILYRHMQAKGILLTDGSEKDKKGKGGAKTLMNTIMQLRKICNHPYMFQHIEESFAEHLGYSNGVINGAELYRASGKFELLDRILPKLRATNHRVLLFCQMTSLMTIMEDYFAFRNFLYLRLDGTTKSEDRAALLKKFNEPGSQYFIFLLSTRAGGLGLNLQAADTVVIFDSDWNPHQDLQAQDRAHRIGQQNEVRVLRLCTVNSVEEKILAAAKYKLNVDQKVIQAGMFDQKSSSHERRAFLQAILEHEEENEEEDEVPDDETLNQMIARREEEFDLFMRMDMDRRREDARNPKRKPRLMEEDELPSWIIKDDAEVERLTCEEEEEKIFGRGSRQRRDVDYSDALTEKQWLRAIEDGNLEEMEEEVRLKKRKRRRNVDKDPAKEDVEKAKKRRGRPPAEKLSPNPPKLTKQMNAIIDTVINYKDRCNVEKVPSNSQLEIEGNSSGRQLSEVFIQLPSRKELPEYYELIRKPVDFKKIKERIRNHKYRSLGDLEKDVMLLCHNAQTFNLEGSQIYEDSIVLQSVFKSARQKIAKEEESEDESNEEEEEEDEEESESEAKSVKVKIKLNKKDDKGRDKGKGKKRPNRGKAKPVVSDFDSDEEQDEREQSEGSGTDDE
- EXPERIMENT_SUMMARY: SMARCA2 degradation assay (HiBiT-fusion HeLa cell line, 24 h, luminescence)
- Assay type: cell-based
- MEASUREMENT_PARAMETERS: 1 μM
READOUT: SMARCA2 % Degradation @ 1 μM

Field: example entries. Status: answers known.
CC(C#Cc1cc(N2CCN(c3cc(-c4ccccc4O)nnc3N)CC[C@H]2C)ccn1)N(C)C (some centres unmarked) [Compound P-399]
++ (++=30-70%)
C[C@@H]1CCN(c2cc(-c3ccccc3O)nnc2N)CCN1c1ccc(C#N)c(C#CCN2CCC(F)(F)CC2)n1 [Compound P-416]
+++ (+++=>70%)
CC(C#Cc1nc(N2CCN(c3cc(-c4ccccc4O)nnc3N)CC[C@H]2C)ccc1C#N)N(C)C (some centres unmarked) [Compound P-407]
++ (++=30-70%)
C[C@@H]1CCN(c2cc(-c3ccccc3O)nnc2N)CCN1c1ccnc(C#CCN2CCCC2=O)c1 [Compound P-390]
+++ (+++=>70%)
C[C@@H]1CCN(c2cc(-c3ccccc3O)nnc2N)CCN1c1cc(C#CCn2ccnc2)ncc1F [Compound P-417]
++ (++=30-70%)

Which SMARCA2 % Degradation @ 1 μM value belongs to C[C@@H]1CCN(c2cc(-c3ccccc3O)nnc2N)CCN1c1ccc(C#N)c(C#CCN2CC(F)(F)[C@H]2C)n1 [Compound P-413] ?
++ (++=30-70%)

Which SMARCA2 % Degradation @ 1 μM value belongs to C[C@@H]1CCN(c2cc(-c3ccccc3O)nnc2N)CCN1c1ccnc(C#CCN2C[C@@H]3C[C@H]2CO3)c1 [Compound P-404] ?
++ (++=30-70%)

----------
- TARGET_SYSTEM: SMARCA4-HiBiT HeLa cells (protein which is expressed from the SMARCA4 gene) (Homo sapiens)
- Construct: protein which is expressed from the SMARCA2 and SMARCA4 genes; host or cells: HeLa (SMARCA4-HiBiT engineered line)
- Sequence (P51532 whole entry): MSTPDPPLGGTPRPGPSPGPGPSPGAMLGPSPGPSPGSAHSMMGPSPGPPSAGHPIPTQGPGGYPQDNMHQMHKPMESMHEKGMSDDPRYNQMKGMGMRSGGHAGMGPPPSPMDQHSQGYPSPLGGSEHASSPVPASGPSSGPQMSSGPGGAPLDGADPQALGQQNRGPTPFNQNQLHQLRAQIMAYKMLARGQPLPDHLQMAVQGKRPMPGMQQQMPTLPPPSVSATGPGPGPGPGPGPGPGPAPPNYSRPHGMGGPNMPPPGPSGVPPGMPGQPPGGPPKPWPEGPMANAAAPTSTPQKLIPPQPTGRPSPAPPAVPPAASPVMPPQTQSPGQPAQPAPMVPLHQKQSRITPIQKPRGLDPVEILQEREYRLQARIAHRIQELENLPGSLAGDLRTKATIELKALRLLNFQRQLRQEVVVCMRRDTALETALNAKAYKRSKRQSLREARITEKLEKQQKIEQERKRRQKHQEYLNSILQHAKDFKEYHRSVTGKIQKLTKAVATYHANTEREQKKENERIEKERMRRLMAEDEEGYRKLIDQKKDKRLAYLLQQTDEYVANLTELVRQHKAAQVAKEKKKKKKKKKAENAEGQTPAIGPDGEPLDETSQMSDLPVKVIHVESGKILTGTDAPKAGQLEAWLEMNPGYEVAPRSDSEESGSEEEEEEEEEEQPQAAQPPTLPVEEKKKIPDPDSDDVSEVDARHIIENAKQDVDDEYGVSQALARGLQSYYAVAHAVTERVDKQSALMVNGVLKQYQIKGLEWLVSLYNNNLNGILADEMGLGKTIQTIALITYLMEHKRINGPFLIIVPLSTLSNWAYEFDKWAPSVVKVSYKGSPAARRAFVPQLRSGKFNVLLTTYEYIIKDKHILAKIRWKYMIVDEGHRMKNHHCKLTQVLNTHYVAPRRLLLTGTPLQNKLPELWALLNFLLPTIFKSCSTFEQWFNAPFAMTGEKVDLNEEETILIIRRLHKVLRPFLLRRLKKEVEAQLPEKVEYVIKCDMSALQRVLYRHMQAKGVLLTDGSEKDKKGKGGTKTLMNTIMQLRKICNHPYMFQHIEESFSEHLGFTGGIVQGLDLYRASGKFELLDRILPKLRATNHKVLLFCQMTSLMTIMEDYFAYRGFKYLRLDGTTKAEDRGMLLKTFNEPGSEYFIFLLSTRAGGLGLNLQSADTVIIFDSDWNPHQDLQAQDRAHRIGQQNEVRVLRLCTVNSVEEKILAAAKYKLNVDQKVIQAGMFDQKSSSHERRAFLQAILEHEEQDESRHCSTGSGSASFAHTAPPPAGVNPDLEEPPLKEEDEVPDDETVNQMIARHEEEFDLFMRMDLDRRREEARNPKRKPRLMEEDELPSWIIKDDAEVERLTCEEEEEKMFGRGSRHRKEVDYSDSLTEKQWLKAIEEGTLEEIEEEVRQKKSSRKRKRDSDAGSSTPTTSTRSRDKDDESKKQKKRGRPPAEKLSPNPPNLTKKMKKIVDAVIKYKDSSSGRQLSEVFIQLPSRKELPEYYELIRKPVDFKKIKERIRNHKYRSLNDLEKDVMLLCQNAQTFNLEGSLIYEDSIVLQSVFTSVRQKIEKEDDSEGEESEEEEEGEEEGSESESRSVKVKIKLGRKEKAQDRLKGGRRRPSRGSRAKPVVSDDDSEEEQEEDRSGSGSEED
- EXPERIMENT_SUMMARY: SMARCA4 degradation assay (HiBiT-fusion HeLa cell line, 24 h, luminescence)
- Type: cell-based
READOUT: DC50

Field: example entries. Status: answers known.
Nc1nnc(-c2ccccc2O)cc1N1CCCN(c2ccnc(C#CCN3C[C@@H]4C[C@H]3CO4)n2)CC1 [Compound P-377]
500 to 5000 nM
Nc1nnc(-c2ccccc2O)cc1N1CCCN(c2ccnc(C#Cc3cnc4cnccn34)n2)CC1 [Compound P-135]
50 to 500 nM
C[C@@H]1CCN(c2cc(-c3ccccc3O)nnc2N)CCN1c1ccnc(C#CCN2C[C@@H]3C[C@H]2CO3)n1 [Compound P-200]
50 to 500 nM

Which DC50 value belongs to CC(C)c1cc(C(C)C)n(CC#Cc2nccc(N3CCCN(c4cc(-c5ccccc5O)nnc4N)CC3)n2)n1 [Compound P-104] ?
500 to 5000 nM

Which DC50 value belongs to C[C@@H]1CCN(c2cc(-c3ccccc3O)nnc2N)CCN1c1ccnc(/C=C/CN2CCC2)n1 [Compound P-166] ?
50 to 500 nM
